- assay_procedure: NCI Yeast Anticancer Drug Screen. Data for the rad52 strain (AID 147)
- test_parameters: S. cerevisiae rad52 mutant growth inhibition; at 3.7 µM
The panel holds about 79,000 compounds, 15% with a hit somewhere; the sample as a whole holds those more often. Calls of active or inactive are those of the source. No stated cut-off is given here; in the data, active means growth inhibition above about 70%; inactive means the rest.
Classes used: active, inactive

> print(dat)
                                    compound     group
 1   C=C(C)[C@@H]1CCc2c(O)c(O)c(=O)cc(C)c2C1  inactive
 2                       O=C(O)c1ccccc1.[Ag]    active
 3  [Pt].c1ccc(P(CCP(c2ccccc2)c2ccccc2)CCP(c2ccccc2)c2ccccc2)cc1  inactive
 4  Clc1c(Cl)c(Cl)c2c(nnn2C2CCCO2)c1Cl (stereo unspecified)  inactive
 5                          CCCCC1=NNC(=O)C1  inactive
 6                C=C1N(C)c2ccc(Cl)cc2C1(C)C  inactive
 7  Clc1cc(Cc2ccc(N=C/C=C/c3ccccc3)c(Cl)c2)ccc1N=C/C=C\c1ccccc1  inactive
 8  C(=N/NC1=NCCN1)/c1c2ccccc2c(/C=N\NC2=NCCN2)c2ccccc12    active
 9  COCCCN(Cc1cc(OC)c(OC)c(OC)c1)C(=S)Nc1cccc(Cl)c1  inactive
10              NC(=O)N1c2ccccc2C=Cc2ccccc21  inactive
11  C/C(=N\NC(=S)NNC(=S)N(C)c1ccccc1)c1ccccn1  inactive
12                 CSc1s[s+]c(SC)c1-c1ccccc1  inactive
13  CCN(CC)CCNC(=O)c1nn(-c2ccc(Cl)cc2)c2c1CCc1cc(OC)ccc1-2  inactive
14  O=C1c2cccc3cc([N+](=O)[O-])cc(c23)C(=O)N1CCN1CCCC1  inactive
15  [N-]=[N+]=NC(c1ccccc1)(c1ccccc1)c1ccccc1  inactive
16  CC(=O)N1C(=O)/C(=C\C(=O)c2ccc(Cl)cc2)c2ccccc21  inactive
17                       O=Cc1coc2ccccc2c1=O  inactive
18  CN=C(N)N/N=C(\C)c1ccc2oc3ccc(/C(C)=N/NC(N)=NC)cc3c2c1  inactive
19                    O=Nn1c2ccccc2c2ccccc21  inactive
20                   Oc1ccc(C=Nc2ccccc2O)cc1  inactive
21  CC[C@@]1(OC(=O)CCC(=O)O)C(=O)OCc2c1cc1n(c2=O)Cc2cc3ccccc3nc2-1    active
22  Cc1onc(-c2ccccc2Cl)c1C1=N/C(=C/c2cc(Cl)cc(Cl)c2O)C(=O)O1  inactive
23               CCCCC(=O)c1c(O)nc2sccn2c1=O  inactive
24  COc1cccc(C(c2cc3c(cc2O)OCO3)N2CCOCC2)c1OC (stereo unspecified)  inactive
25            CC(=O)c1cc2c(Cl)cc(Cl)cc2oc1=O  inactive
26  Cc1cc(C)c(N2C(=O)CC(Sc3ccccc3N)C2=O)c(C)c1 (stereo unspecified)  inactive
27                  Oc1ccc(Br)cc1C=NC1CCCCC1  inactive
28                     CC(C)c1cccc(O)c(=O)c1  inactive
29                     N#CC(=S)Nc1cccc(Cl)c1  inactive
30  O=C(NCCCCCN1CCC2(CCCCC2)CC1)C(C1CCCCC1)C1CCCCC1  inactive
31          S=C1SCN(CCc2ccccc2)CN1CCc1ccccc1  inactive
